Target Or Test System: T1, Human PD-1 expressed on CHO-K1 cells (CHO-K1/hPD-1) (human, UniProt Q15116 25-288)
T1 construct: whole, on cells; also called CHO-K1 cells overexpressing human PD-1
T1 sequence (Q15116 25-288): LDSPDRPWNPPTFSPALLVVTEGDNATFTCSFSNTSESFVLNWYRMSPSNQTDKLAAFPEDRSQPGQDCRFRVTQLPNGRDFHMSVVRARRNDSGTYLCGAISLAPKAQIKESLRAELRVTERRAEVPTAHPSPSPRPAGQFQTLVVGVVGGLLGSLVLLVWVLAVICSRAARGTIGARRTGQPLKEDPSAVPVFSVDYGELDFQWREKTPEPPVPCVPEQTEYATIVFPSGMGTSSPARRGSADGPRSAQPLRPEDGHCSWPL
Protocol: FACS, CHO-K1/hPD-1 cells
Measured MFI Maximum by item

Binder: PR005104 (VHH, Monovalent single-domain (VH) variant of PR002481 with Flag-6His tag) VHH: EVQLVETGGGLIQPGGSLRLSCAASGFNVSSHYMSWVRQAPGKGREWVSIIDISGSTYYADSVKGRFTISRDNSKNRLYLQMNSLRAEDTAMYYCARATAVAEKNGYNYPFNYWGQGTLVTVSS
MFI Maximum: 7300

Binder: PR005103 (VHH, Monovalent single-domain (VH) variant of PR002481 with Flag-6His tag) VHH: EVQLVETGGGLIQPGGSLRLSCAASGFNVSSHYMSWVRQAPGKGREWVSIIDRGGGTYYADSVKGRFTISRDNSKNRLYLQMNSLRAEDTAMYYCARATAVAEKNGYNYPFNYWGQGTLVTVSS
MFI Maximum: 6890
